# System Under Test: human GLP-1 receptor (GLP-1R) (human, UniProt P43220 24-463)
# Protocol Summary: cell-based or functional assay
Numbered stars: 1 amine (or outer) side, 2 acyl side, 3 side chain; on linkers, the order of the positions; unused ones are H or OH. Square brackets hold non-standard residues; d marks the D form. Side chains are listed from the residue outwards. Ends that are not written are not given here. * marks the point of attachment. C20 diacid = O=C(O)CCCCCCCCCCCCCCCCCCC(=O)*; αMePhe(2-F) = C[C@](N)(Cc1ccccc1F)C(=O)O; γGlu = O=C(O)[C@H](CCC(=O)[*:2])N[*:1]; Desaminotyrosyl = O=C(CCc1ccc(O)cc1)*; αMeF = C[C@](N)(Cc1ccccc1)C(=O)O; AEEA = NCCOCCOCC(=O)O; Aib = CC(C)(N)C(=O)O
Measurement Type: hGLP1R cAMP Rel EC50 (nM)
# unit: nM | format: bare number

# annotated cases, reported hGLP1R cAMP Rel EC50 shown
{"Binder": "YXEGTXTSDVSIXLDEKAQXEFIXYLIEGGPSSGAPPPS (Y-Aib-EGT-αMeF(2F)-TSDVSI-αMeF-LDEK((2-[2-(2-Amino-ethoxy)-ethoxy]-acetyl)2-(γ-Glu)-CO-(CH2)18-CO2H)AQ-Aib-EFI-(D-Glu)-YLIEGGPSSGAPPPS-NH2) [Example 191]", "Meas Value": 0.0356}
{"Binder": "YXEGTXTSDXSILLDKKAQXAFIEYLIEGGPSSGAPPPS (Y-Aib-EGT-αMeF-TSD-3Pal-SILLDKK((2-[2-(2-Amino-ethoxy)-ethoxy]-acetyl)2-(γ-Glu)-CO-(CH2)18-CO2H)AQ-Aib-AFIEYLIEGGPSSGAPPPS-NH2) [Example 132]", "Meas Value": 0.26}
{"Binder": "Y[Aib]EGT[αMeF]TSDYSIXLDKKAQ[Aib]DFIEYLIEGGPSSGAPPPS-NH2 (not fully specified (residues 13, 17); printed as Y-Aib-EGT-αMeF-TSDYSI-αMeF-LDKK((2-[2-(2-Amino-ethoxy)-ethoxy]-acetyl)2-(γ-Glu)-CO-(CH2)18-CO2H)AQ-Aib-DFIEYLIEGGPSSGAPPPS-NH2) [Example 140]", "Meas Value": 0.0424}
{"Binder": "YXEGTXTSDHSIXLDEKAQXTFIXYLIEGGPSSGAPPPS (Y-Aib-EGT-αMeF(2F)-TSDHSI-αMeF-LDEK((2-[2-(2-Amino-ethoxy)-ethoxy]-acetyl)2-(ϵK)-CO-(CH2)16-CO2H)AQ-Aib-TFI-(D-Glu)-YLIEGGPSSGAPPPS-NH2) [Example 176]", "Meas Value": 1.07}
{"Binder": "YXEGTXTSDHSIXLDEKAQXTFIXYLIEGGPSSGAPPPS (Y-Aib-EGT-αMeF(2F)-TSDHSI-αMeF-LDEK((2-[2-(2-Amino-ethoxy)-ethoxy]-acetyl)2-CO-(CH2)18-CO2H)AQ-Aib-TFI-(D-Glu)-YLIEGGPSSGAPPPS-NH2) [Example 174]", "Meas Value": 0.472}

hGLP1R cAMP Rel EC50 in this record for YXEGTXTSDLSIXLDEKAQXEFIXYLIEGGPSSGAPPPS (Y-Aib-EGT-αMeF(2F)-TSDLSI-αMeF-LDEK((2-[2-(2-Amino-ethoxy)-ethoxy]-acetyl)2-(γ-Glu)-CO-(CH2)18-CO2H)AQ-Aib-EFI-(D-Glu)-YLIEGGPSSGAPPPS-NH2) [Example 183] : 0.0551

hGLP1R cAMP Rel EC50 in this record for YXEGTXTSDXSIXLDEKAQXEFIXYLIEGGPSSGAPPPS (Y-Aib-EGT-αMeF(2F)-TSD-4Pal-SI-αMeF-LDEK((2-[2-(2-Amino-ethoxy)-ethoxy]-acetyl)2-(γ-Glu)-CO-(CH2)18-CO2H)AQ-Aib-EFI-(D-Glu)-YLIEGGPSSGAPPPS-NH2) [Example 182] : 0.0463

hGLP1R cAMP Rel EC50 in this record for [Desaminotyrosyl][Aib]EGT[αMePhe(2-F)]TSDYSIXLDEK([AEEA-AEEA-γGlu-C20 diacid])AQ[Aib]EFIEYLIEGGPSSGAPPPS-NH2 (not fully specified (residue 13); printed as DesTyr-Aib-EGT-αMeF(2F)-TSDYSI-αMeF-LDEK((2-[2-(2-Amino-ethoxy)-ethoxy]-acetyl)2-(γ-Glu)-CO-(CH2)18-CO2H)AQ-Aib-EFIEYLIEGGPSSGAPPPS-NH2) [Example 134] : 0.0654

hGLP1R cAMP Rel EC50 in this record for Y[Aib]EGT[αMeF]TSDYSIXLDEK([AEEA-AEEA-γGlu-C20 diacid])AQ[Aib]EFIEYLIEGGPSSG-NH2 (not fully specified (residue 13); printed as Y-Aib-EGT-αMeF-TSDYSI-αMeF-LDEK((2-[2-(2-Amino-ethoxy)-ethoxy]-acetyl)2-(γ-Glu)-CO-(CH2)18-CO2H)AQ-Aib-EFIEYLIEGGPSSG-NH2) [Example 124] : 0.0475
